System: mouse carcinogenicity bioassay, TD50 from CPDB
PROCEDURE_TEXT: DSSTox (CPDBAS) Carcinogenic Potency Database Summary Mouse Bioassay Results
CONDITION_SUMMARY: TD50_Mouse_Note: TD50 is harmonic mean of more than one positive test; TargetSites_Mouse_Female: esophagus; oral cavity; stomach
MEASURED_ENDPOINT: Potency

QUERY: Recorded Potency for c1ccc2c(c1)cc1ccc3cccc4ccc2c1c34 , please?
RESULT: 0.0138 mmol/kg/day

----------
System: mouse carcinogenicity bioassay, TD50 from CPDB
PROCEDURE_TEXT: DSSTox (CPDBAS) Carcinogenic Potency Database Summary Mouse Bioassay Results
CONDITION_SUMMARY: TargetSites_Mouse_Female: lung; vascular system
MEASURED_ENDPOINT: Potency

QUERY: Recorded Potency for CCCCCNN , please?
RESULT: 0.0423 mmol/kg/day

QUERY: Recorded Potency for NNCCc1ccccc1 , please?
RESULT: 0.0623 mmol/kg/day

----------
Test system: mouse carcinogenicity bioassay, TD50 from CPDB
PROCEDURE_TEXT: DSSTox (CPDBAS) Carcinogenic Potency Database Summary Mouse Bioassay Results
CONDITION_SUMMARY: TD50_Mouse_Note: TD50 is harmonic mean of more than one positive test; greater than ten-fold variation among TD50 values for positive res; TargetSites_Mouse_Female: adrenal gland; liver
MEASURED_ENDPOINT: Potency

QUERY: // map ClC(Cl)(Cl)Cl to recorded Potency (system: mouse carcinogenicity bioassay, TD50 from CPDB)
RESULT: 0.218 mmol/kg/day

----------
Tested on: mouse carcinogenicity bioassay, TD50 from CPDB
PROCEDURE_TEXT: DSSTox (CPDBAS) Carcinogenic Potency Database Summary Mouse Bioassay Results
CONDITION_SUMMARY: TargetSites_Mouse_Female: no positive results
Excerpt: The Carcinogenic Potency Database (CPDB) is a unique and widely used international resource of the results of over 6500 chronic, long-term animal cancer tests on over 1500 chemical substances. The CPDB provides easy access to the bioassay literature, with qualitative and quantitative analyses of both positive and negative experiments that have been published over the past 50 years in the general literature and by the National Cancer Institute/National Toxicology Program. […]
Exercise: state measured Potency for each of the compounds provided.

QUERY: Recorded Potency for CCOc1ccccc1C(N)=O , please?
RESULT: 3.11 mmol/kg/day

QUERY: Recorded Potency for Cc1ccc(NC(N)=O)cc1 , please?
RESULT: 1.37 mmol/kg/day

QUERY: Recorded Potency for C=O , please?
RESULT: 1.46 mmol/kg/day

QUERY: Recorded Potency for O=[N+]([O-])c1c(Cl)c(Cl)c(Cl)c(Cl)c1Cl , please?
RESULT: 0.241 mmol/kg/day

QUERY: Recorded Potency for Nc1c(Cl)cc(Cl)cc1Cl , please?
RESULT: 1.32 mmol/kg/day

----------
Tested on: mouse carcinogenicity bioassay, TD50 from CPDB
PROCEDURE_TEXT: DSSTox (CPDBAS) Carcinogenic Potency Database Summary Mouse Bioassay Results
CONDITION_SUMMARY: TargetSites_Mouse_BothSexes: lung
MEASURED_ENDPOINT: Potency

QUERY: Recorded Potency for CC/C=C(/CC)[N+](=O)[O-] , please?
RESULT: 0.00268 mmol/kg/day

----------
System: mouse carcinogenicity bioassay, TD50 from CPDB
PROCEDURE_TEXT: DSSTox (CPDBAS) Carcinogenic Potency Database Summary Mouse Bioassay Results
CONDITION_SUMMARY: TD50_Mouse_Note: TD50 is harmonic mean of more than one positive test; TargetSites_Mouse_Female: hematopoietic system; liver; vascular system
MEASURED_ENDPOINT: Potency

QUERY: // map FC(F)=C(F)F to recorded Potency (system: mouse carcinogenicity bioassay, TD50 from CPDB)
RESULT: 0.719 mmol/kg/day

All figures here come from PubChem BioAssay AID1199.
